Values compiled from the supplement of paper PMC10567573.

B1: TSN (parent)
chain: AFVVYLETETLVTREAVTEILGIE

- Variants of: B1
- measurement.description: protein stability index of a GFP-peptide fusion (GPS, HEK-293T) (PSI 1-6); higher = more stable;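 further: lentivirally expressed fusions sorted by FACS into six bins by GFP to DsRed ratio, PSI derived from sequencing read proportions per bin multiplied by bin number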
- condition.description: c terminus: a fixed tail appended
value.kind: protein stability index
Enter a number only.

Exercise: Dear colleague, please send me the reported protein stability index for V17Q when you can.
Solution: 3.14

Exercise: Supply recorded protein stability index for V3K here.
Solution: 1.81

Exercise: For Y5D , write its protein stability index.
Solution: 2.68
